experiment: yeast display, Sf9 membrane polyspecificity reagent, FACS + sequencing; frameworks hold sequencing errors
METRIC NAME: polyreactivity (PSR sort gate)

{"columns": ["RESIDUE SEQUENCE", "EXPERIMENTAL RESULT"],
 "data": [
  ["QVQLVESGGGLVQAGGSLRLSCAASGSTFVIYAMGWYIQAPGKERELVAAINSGVSTYADSVKGRFTISRDNAKNTVYLQMNSLKPEDTAVYYCNAVSRPPYGPVFSAPAGGSWGQGTQVTVSS", "low polyreactivity"],
  ["QVQLVESGGGLVQAGGSLRLSCAASGSTLRYYAMGWYRQAPGKERELVAAISTGGSTYYADSVKVRFTISRDNAKNTVYLQMNSLKAEDTAVYYCAAEKKTKTYRYDYWGQGTQVTVSS", "low polyreactivity"]
]}

---

experiment: yeast display, Sf9 membrane polyspecificity reagent, FACS + sequencing; frameworks hold sequencing errors

{"columns": ["RESIDUE SEQUENCE", "polyreactivity (PSR sort gate)"],
 "data": [
  ["QVQLVESGGGLVQAGGSLRLSCAPSGIIFFAYAMGWYRQAPGKERELVAAISSSGGRTYYADSVKGRFTISRDNAKHTVYLQMNSLKPEETPVYYCNARWHGSFDYWGQGTQVTVSS", "low polyreactivity"],
  ["QVQLVESGGGLVQAGGRLRLSCAPSGLIFQHNSMGWYRKATGKERELVASITWDGGSTYYADSVKGRFTISRDNAKNTVYLQMNSLKPEDTAVYYCAARFDSFWVEYDYWGQGTQVTVSS", "low polyreactivity"]
]}

---

test: yeast display, Sf9 membrane polyspecificity reagent, FACS + sequencing; frameworks hold sequencing errors
METRIC NAME: polyreactivity (PSR sort gate)

Some sequences with known polyreactivity (PSR sort gate) results, for comparison:
{"columns": ["RESIDUE SEQUENCE", "polyreactivity (PSR sort gate)"],
 "data": [
  ["QVQLVESGGGLVQAGGSLRLSCAASGRTFRTYVMGWYRQAPGKERELVAAITWSGGRTYYADSVKGRFTISRDNAKNTVYLQMNSLKPEDTAVYYCATQPTYYLRSYGLDYWGQGTQVTVSS", "high polyreactivity"],
  ["QVQLQESGGGLVQAGGSLRLSCSATGTIFTDRFMGWYRQAPGKERELVAGISPGTSTNYADSVKGRFTISRDNAKNTVYLQMNSLKPEDTAVYYCAADWSTGNTLPYWGQGTQVTVSS", "high polyreactivity"],
  ["QVQLVEAGGRLVQAAGSLRLSLAASAFNTTAMGWYRQAPGKDRELVAAITSDGDSTYYADSVKGRFTISRDNAQNTDYFQKNCVKPVDTAVYYCAADAVPTSVVYWGFYGMYWGQGTQVTVSS", "low polyreactivity"],
  ["QVQLVESGGGLVQAGGSLRLSCAASGYTFGKYAMGWYRQAPGKEREWVAGISSRGGSTYYADSVKGRFTISRDNAKNTVYLQMNSLKPEDTAVYYCAAVAYTGGPRKLGFNYWGQGTQVTVSS", "high polyreactivity"],
  ["QVQLVESGGGLVQAGGSLRLSCAASGRTFGQYVMGWYRQAPGKERELVAAIRSGGSTYYADSVKGRFTISRDNAKNTVYLQMNSLKPEDTAVYYCAKETYYGTDNFGQVGGEMDYWGQGTQVTVSS", "low polyreactivity"],
  ["QVQLVESGGGLVQAGGSLRLSCAASGSTFSIYAMGWYRPAPGKERELVAAITGTVGSTYYADSVKGRFTISRDNAKNTVYLQMNSLKPEDTAVYYCAARQVNYDYDYWGQGTQVTVSS", "low polyreactivity"]
]}

Provide polyreactivity (PSR sort gate) for all items below, preserving their order.
1. QVQIVESGGGLVQAGGSLRISCAASGFIFNRYAMGWYRQAPGTERELVADITGGSTYFADSVKGRFTISRDNAKNTVYLLMKSLKPEDTAVYYCAADVLRISTLLFRGPGFDYWGQGTQVTVSS
2. QVQLVESGGGLVQSGGSLRLTWAASGFTFNRYAMGWYRQAPGKEMELVAAITSRSGITYYADSVKGRFTISRDNAKNTVYLQMNSLKPEDTAVYYCAAYVSRSTEFDYGFWGQGTQVTVSS
3. QVQLVESGGGLVQAGGSLRLSCAASGRIFVQYDMGWYRQAPGKERELVAAITGGGGSTYYADSVKGRFTISRDNAKNTVYLQMHSLKPEDTAVYYCAADQDVYDFTGYDYWGQGTQVTVSS
4. QVQLVESGGGLVQAGGSLRLSCAASGFTFDKNAMGWYRQAPGKERELVAAINIGSTYYADSVKGRFTISRDNAKNTVYLQMNSLKPEDTAVYYCAKEVPSGYWVNYYYWGQGTQVTVSS
5. QVQLVESGGGLVQAGGSLRLSCDASGSTFTGYAMGWYRQAPGKERELVAAISRSGGSTSYADSVKGRFTISRDNAKNTVYLQMNSLKPEDTAGYYCAAQVQGTTRAKQRGGIGELDYWGQGTQVTVSS
6. QVQLVESGGGLVQAGGSLRLSCAASGIIFYRYAMGWYRQAPGKERELVAAISTRGGSTYYADSVKGRFTISRDNAKYTVYLHMNSLKPEDTAVYYCAAEWLRYLHDYWGQGTQVTVSS

1. low polyreactivity
2. high polyreactivity
3. low polyreactivity
4. low polyreactivity
5. low polyreactivity
6. high polyreactivity

Required: polyreactivity (PSR sort gate), one value per sequence below.
1. QVQLVESGGGLVQAGGSLRLICAASGIFASYAMGWYRQAPGKERELVAAIRSSGGRTYYADSVKGRFTISRDNAKNTVYLQMNSLKPEDTAVYYCAVASGQSFYWGQGTQVTVSS
2. QVQLVESGGGLVQAGGSLRLSCAASGRIFYFYVMGWYRQAPGKEREFVAAISQSGGSTYYADSVKGRFTISRDNAKNTVYLQMNSLKPEDTAVYYCAADLKAWGRYYYWGQGTQVTVSS
3. QVQLVESGGGLVQAGGSLRLSCAASGNTFYGYAMGWYRQAPGKERELVASITLSGDSTYYADSVKGRFTISRDNAKNTVYLQMNSLKPEDTAVYYCGGVYTYPLGYYHYTYDYWGQGPQVTVSS
4. QVQLVDSGGGLVQAGGSLRLSCAASGSTFQPYAMGWYRQAPGKERELVAAIRYSGGITYYADSVKGRFTISRDNAKNTVYLQMNSLKPEDTAVYYCAAYGFYGGDYWGQGTQVTVSS
5. QVQLVESGGGLVQAGGSLRFSCAASGRIFTVNAMGWDRQARGKERELVASITGRGTRTYYADSVKGRFTISRDNAKNTVYLQMNSLKPEDTAVYYCAARAVKQYGNSYDYWGQGTQVTVSS
6. QVQLVESGGGLVQAGGSLRLSCAASGSLFGGYAMGWYRQAPGKERELVAAISGSGGSTYYADSVKGRFTISRDNAKNTVYLQMNSLKPEDTAVYYCAAEYYGTYSEGGESYDYWGQGTQVTVSP
7. QVQLVESGGGLVQAGGSLRLSCAASGRTFIWNAMGWYRQAPGKERELVADISIRGGSTNYADSVKGRFTISRDNAKNTVYFQMNSLKPEDTAVYYCAAEYYDSGNDYWGQGTQVTVSS
8. QEQLQESGGGLVQAGGSLRLSCAASGNIYDADIMGWYRQAPGKERELVTSITDGGSTNYADSVKGRFTISRDNAKNTVYLQMNSLKPEDTAVYYCAAIAYPDIPTSFDYNSDYSYWGQGTQVTVSS

1. high polyreactivity
2. low polyreactivity
3. low polyreactivity
4. high polyreactivity
5. high polyreactivity
6. low polyreactivity
7. low polyreactivity
8. low polyreactivity

QVQHVESGGGLVQAGGRLRLSCAASGGIYYYAMGWYRQAPGKERELVAAISSGGGNTNYADSVKGRFTISRDNAKNTVYLQMNSLKPEDTAVYYCATDGFIPTYSYTEIGYDYWGQGTQVTVSS yielded polyreactivity (PSR sort gate) of low polyreactivity

---

experiment: yeast display, Sf9 membrane polyspecificity reagent, FACS + sequencing; frameworks hold sequencing errors
METRIC NAME: polyreactivity (PSR sort gate)

Check out these entries, answers already filled in.
{"columns": ["RESIDUE SEQUENCE", "EXPERIMENTAL RESULT"],
 "data": [
  ["QVQLVESGGVLVQAGGSLRLSCAASGSTFYYYAMGWYRKAPGKERELVAAISSSGGTTYYADSVKGRFTISRDNAKNTVYLQMNSLKPEDTAVYYCAKYPWYWDEGNSWGQGTQVTVSS", "low polyreactivity"],
  ["QVQLVESGGGLVQAGGSLRLSCAASGGTFYHNVMGWYRQAPGKERELVAAIRYSGGRTYYADSVKGRFTISRDNAKNTVYLQMNSQKPEDTAVYYCAVRSYYGPFGYWGQGTQVTVSS", "high polyreactivity"],
  ["QVQLVVSGGGLVQAGGSLRLSWAASGSIFERYAMGLYRQAPGKERELVARISRSGTSTYYADSVKGRFTISRDNAKNSVYDQMNSLQPEDTAVYYCNATGSRYSGYQRCHYWRYDYLGQGTQVTVSS", "high polyreactivity"],
  ["QVQLVESGGGLVQAGGSLRLSCAASGSTFYYYAIGWYRQAPGKERELVAALSKSGGSTYYADSVKGRFTISRDNAKNTVYLQMNSLNTEDTAVYYCSARWYRFQGYGRPYRGIGGDYWGQGTQVTVSS", "high polyreactivity"]
]}

Now turn to the next sequence.
Query QVQIVESGAGLVQAGGSLRISCAASGRIFRYYAMGWYRQAPGKERELVAAITVSGGSKYYADSVKGRFTISRDNAKNTVYLQMNSLKPEDTAVYYCAKALRSYLFIHFDYWVQGTQVTVSS yields polyreactivity (PSR sort gate) of low polyreactivity

Reference source: the nanobody polyreactivity screen of Harvey et al. (2022)
